experiment: Clearance in guinea pig; format: ADME, organism-based, Cavia porcellus; conditions: in vivo
Measurement type: clearance (mL/min/kg)

INSERT INTO results (molecule, readout_value) VALUES
  ('O=C(Nc1ccccc1Br)N[C@@H]1CCN(c2ccc(C(F)(F)F)cn2)C1 [SB-705498]', 34);

----------
biological target: Transient receptor potential cation channel subfamily V member 1 (Rattus norvegicus) (UniProt O35433); experiment: Antagonist activity against capsaicin-mediated activation of rat TRPV1 by FLIPR; type: functional
Sequence (O35433 whole entry): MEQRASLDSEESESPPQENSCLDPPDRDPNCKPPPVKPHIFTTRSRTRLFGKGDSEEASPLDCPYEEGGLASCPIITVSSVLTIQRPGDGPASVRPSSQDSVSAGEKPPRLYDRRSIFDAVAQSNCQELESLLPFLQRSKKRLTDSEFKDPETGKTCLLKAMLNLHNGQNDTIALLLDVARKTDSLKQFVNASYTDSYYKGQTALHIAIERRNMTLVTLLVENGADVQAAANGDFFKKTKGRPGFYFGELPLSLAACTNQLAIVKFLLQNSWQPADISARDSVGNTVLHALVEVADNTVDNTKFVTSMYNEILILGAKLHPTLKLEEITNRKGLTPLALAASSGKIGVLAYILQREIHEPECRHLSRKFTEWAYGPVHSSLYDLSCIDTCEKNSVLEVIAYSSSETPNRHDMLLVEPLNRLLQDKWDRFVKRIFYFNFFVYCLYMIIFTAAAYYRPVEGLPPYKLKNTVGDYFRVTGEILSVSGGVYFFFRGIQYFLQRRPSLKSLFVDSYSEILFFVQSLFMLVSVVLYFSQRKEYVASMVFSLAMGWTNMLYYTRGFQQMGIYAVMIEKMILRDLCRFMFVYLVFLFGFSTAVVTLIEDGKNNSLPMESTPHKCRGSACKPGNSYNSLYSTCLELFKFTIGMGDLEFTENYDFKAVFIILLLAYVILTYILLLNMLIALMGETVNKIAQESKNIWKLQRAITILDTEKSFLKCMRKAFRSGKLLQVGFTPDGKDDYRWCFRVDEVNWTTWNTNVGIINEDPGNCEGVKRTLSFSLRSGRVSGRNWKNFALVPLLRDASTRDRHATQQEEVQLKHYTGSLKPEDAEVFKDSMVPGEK
Measurement type: pKb

INSERT INTO measurements (query_smiles, measurement_type, readout_value) VALUES
  ('Cc1cccc(N2CC[C@H](NC(=O)Nc3ccccc3Br)C2)c1', 'pKb', '< 6.8'),
  ('O=C(Nc1ccccc1Br)N[C@@H]1CCN(c2ccccn2)C1', 'pKb', '< 6.6'),
  ('Cc1ccc(N2CC[C@@H](NC(=O)Nc3ccccc3Br)C2)nc1', 'pKb', '< 6.7');
